- Tested on: UACC-62 melanoma
- Method Description: NCI tumour cell line growth inhibition, 48 h
The compounds listed here are annotated with their TGI.

Compound	System Under Test	TGI
CCOC(=O)C12CCCC1(O)N(NC(=O)c1ccccc1)C(C)=C2C(=O)OC (stereo not drawn)	UACC-62 melanoma	> 100 µM
OC(c1nc2ccccc2s1)(C(F)(F)F)C(F)(F)F	UACC-62 melanoma	> 100 µM
CNC(=O)CN(CC(=O)NC)C(=O)NC	UACC-62 melanoma	> 100 µM

---

The molecules listed here are annotated with their GI50.
- System: KM12 colon
- Method Description: NCI tumour cell line growth inhibition, 48 h
Reported Metric: GI50

Molecule Smiles	Recorded Measurement
COc1ccc2c(c1)C(=O)/C(=C/c1cccc(OCC(=O)Nc3nc4c(s3)CCCC4)c1)O2	0.72 µM
COc1cc2c3c(n(CCCCOC(=O)C(F)(F)F)c(=O)c2cc1OC)-c1cc2c(cc1C3=O)OCO2	> 100 µM
CC1=CC(=NC(=O)CBr)C=C/C1=N\S(=O)(=O)c1ccccc1	16.8 µM
O=C1NN(c2ccc(C(=O)O)cc2)C(=O)/C1=C\c1ccc([N+](=O)[O-])o1	> 100 µM
CCC(C)(C)C(=O)O[C@H]1C[C@@H](C)C=C2C=C[C@H](C)[C@H](CC[C@@H]3C[C@@H](O)CC(=O)O3)[C@H]21	11.2 µM

Origin of values: PubChem BioAssay (NCI)
